Parameter growth inhibition: see the listing below.
# assay: NCI Yeast Anticancer Drug Screen. Data for the rad18 strain (AID 177)
# assayConditions: S. cerevisiae rad18 mutant growth inhibition; at 1.2 µM; stronger effect = higher value
Compounds without any hit were thinned out: in the full panel of roughly 79,000, 15% have a hit.
Field: numeric (%). Do not append units.

Consider the reported growth inhibition for these compounds:
Q) Please report the recorded growth inhibition for O=Cc1coc2ccccc2c1=O .
A) 5

Q) Please report the recorded growth inhibition for N#C/C(=C1C=C(Br)/C(=N\O)C=C\1Cl)c1cccc2ccccc12 .
A) 0

Q) Please report the recorded growth inhibition for Cc1ccccc1NC(=O)Cc1csc(N/N=C2\NC(=O)/C(=C/c3cccc([N+](=O)[O-])c3)S2)n1 .
A) -2

Q) Please report the recorded growth inhibition for S=P(N1CC1)(N1CC1)N1CC1 .
A) -3

Q) Please report the recorded growth inhibition for COc1cccc(C(c2cc3c(cc2O)OCO3)N2CCOCC2)c1OC (stereo unspecified) .
A) -3

Next:
Q) Please report the recorded growth inhibition for CC(=O)[O-].O=C([CH-]C(=O)c1ccccc1)c1ccccc1.O=C([CH-]C(=O)c1ccccc1)c1ccccc1.[Sm+3] .
A) 5

Q) Please report the recorded growth inhibition for CC(=O)O[C@H]1C(=O)[C@@]2(C)[C@H]([C@H](OC(=O)c3ccccc3)[C@]3(O)C[C@H](OC(=O)[C@H](O)[C@@H](NC(=O)c4ccccc4)c4ccccc4)C(C)=C1C3(C)C)[C@]1(OC(C)=O)CO[C@@H]1C[C@@H]2O .
A) -5

Q) Please report the recorded growth inhibition for CSc1s[s+]c(SC)c1-c1ccccc1 .
A) 3

* * *

# assay: NCI Yeast Anticancer Drug Screen. Data for the rad18 strain (AID 177)
# assayConditions: S. cerevisiae rad18 mutant growth inhibition; at 33.0 µM; stronger effect = higher value
This is part of a sample that, as a whole, favours compounds with a hit. Of some 79,000 tested, about 15% had one in any assay. Residues, ends and D or L forms follow the SMILES beside them. *: point of attachment. CH2Cl = ClC*
Entry flag: Met if growth inhibition reaches 90%; Not met if it does not.

Q) Please tell me: is the molecule CN=C(N)N/N=C(\C)c1ccc2oc3ccc(/C(C)=N/NC(N)=NC)cc3c2c1 at or over 90% in terms of growth inhibition?
A) Met

Next:
Q) Please tell me: is the molecule CC(=O)NC(CC(C)C)C(=O)NC(Cc1ccccc1)C(=O)CCl (stereo not drawn) (Ac-Leu-Phe-CH2Cl; configuration not given here) at or over 90% in terms of growth inhibition?
A) Not met

Q) Please tell me: is the molecule O=[N+]([O-])/C(C(Cl)=C(Cl)Cl)=C1/OCCS1 at or over 90% in terms of growth inhibition?
A) Met

Q) Please tell me: is the molecule Nc1nc(F)nc2c1ncn2C1OC(COP(=O)(O)O)C(O)C1O (stereo unspecified) at or over 90% in terms of growth inhibition?
A) Not met

* * *

# assay: NCI Yeast Anticancer Drug Screen. Data for the rad50EPP+ strain (AID 151);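 note: 0% = growth of vehicle-treated control cultures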
# assayConditions: S. cerevisiae rad50 mutant strain, at 33.0 µM
About 79,000 compounds went through this panel and 15% of them were active in at least one assay; those are over-represented in the sample as a whole. Calls of active or inactive are those of the source. Cut-off read from the data, not from the text of the source: active = growth inhibition above about 70%; inactive = the rest. Residues, ends and D or L forms follow the SMILES beside them. *: point of attachment. CH2Cl = ClC*
Hello, when you answer, please use one of the following outcomes: 1 (active), 0 (inactive)

Q) Hi, do you know how Cc1cc(O)c2c(c1)C(=O)C=C(Br)C2=O came out in this test?
A) 1

Q) Hi, do you know how CC[C@@]1(OC(=O)CN(C)C)C(=O)OCc2c1cc1n(c2=O)Cc2cc3c(N)cccc3nc2-1 came out in this test?
A) 1

Q) Hi, do you know how CCCc1[nH]nc(C(N)=O)c1N=NN(C)C came out in this test?
A) 1

Q) Hi, do you know how Cc1ccc(CNc2ccc(Br)cc2)cc1 came out in this test?
A) 0

Q) Hi, do you know how CC(=O)NC(CC(C)C)C(=O)NC(Cc1ccccc1)C(=O)CCl (stereo not drawn) (Ac-Leu-Phe-CH2Cl; configuration not given here) came out in this test?
A) 0

Q) Hi, do you know how CC(=O)C1=C(C)O/C(=C/c2cccc(Cl)c2)C1=O came out in this test?
A) 0

Q) Hi, do you know how COc1cc(N(C)C)ccc1/C=C\c1ccnc2ccccc12 came out in this test?
A) 0

Q) Hi, do you know how O=C(CCc1ccccc1)ON1C(=S)C(c2ccccc2)(c2ccccc2)N=C1Sc1ccccc1 came out in this test?
A) 0

Next:
Q) Hi, do you know how CNc1nc(C)nc2c1cnn2-c1ccc([N+](=O)[O-])cc1 came out in this test?
A) 0

Q) Hi, do you know how COC(=O)c1cccc(C)c1C(=O)c1c(C)cc(C)cc1C came out in this test?
A) 0

Q) Hi, do you know how NC(N)=NCCCS(=O)(=O)Nc1ccc(Nc2c3ccccc3nc3cc([N+](=O)[O-])ccc23)cc1 came out in this test?
A) 0

Q) Hi, do you know how COC(=O)c1n[nH]c(C)c1N=NN(C)CCC#N came out in this test?
A) 1

Q) Hi, do you know how COc1ccc(C(C#N)=C2C=CC(=NO)C=C2)cc1 came out in this test?
A) 1

Q) Hi, do you know how Cc1ccc(S(=O)(=O)N(C)c2ccc(Cl)cc2C2=NCCc3ccccc32)cc1 came out in this test?
A) 0

Q) Hi, do you know how Cc1cccc2c1N=C(C(F)(F)F)CC2=O came out in this test?
A) 0

Q) Hi, do you know how CC1C(C#N)(C#N)C(C#N)=C(N)C1(Cl)[N+](=O)[O-] (stereo not given) came out in this test?
A) 1
